B1: tRNA (parent)
chain: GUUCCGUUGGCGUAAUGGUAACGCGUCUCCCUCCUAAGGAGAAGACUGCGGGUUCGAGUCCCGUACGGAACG

Variants of: B1
Test method notes: yeast fitness, log relative to wild type (ln ratio); higher = fitter; tRNA-Arg(CCU), competitive growth, 37 C, 1 M NaCl

[
  {
    "Biopolymer sequence": "GUUCCGUUGGCGUAAUGGUAACGCGUUUCCCUCCUAAGGAGAAGACUGCGGGUUCGAGUCCCGUAUGGAGCG [C27U C66U A70G]",
    "yeast fitness (ln)": -0.116
  },
  {
    "Biopolymer sequence": "ACUCCAUUGGCGUAAUGGUAACGCGUUUCCCUCCUAAGGAGAAGACUGCGGGUUCGAGUCCCGUAUGGAGUG [G1A U2C G6A C27U C66U A70G C71U]",
    "yeast fitness (ln)": -0.0371
  },
  {
    "Biopolymer sequence": "AGUCCAUUGGCGUAAUGGUAACGCGUUUCCCUCCUAAGGAGACGACUGCGGGUUCGAGUCCCGUAUGGAACG [G1A U2G G6A C27U A43C C66U]",
    "yeast fitness (ln)": -0.348
  },
  {
    "Biopolymer sequence": "AUUCCUUUGGCGUAAUGGUAACGCGUCUCCCUCCUAAGGAGAAGACUGCGGGUUCGAGUCCCGUAAGGAGCG [G1A G6U C66A A70G]",
    "yeast fitness (ln)": -0.196
  },
  {
    "Biopolymer sequence": "GCUCCUUUGGCGUAAUGGUAACGCGUUUCCCUCCUAAGGAGAAGAUUGCGGGUUCGAGUCCCGUACGGAGUG [U2C G6U C27U C46U A70G C71U]",
    "yeast fitness (ln)": -0.359
  },
  {
    "Biopolymer sequence": "ACUCCAUUGGCGUAAUGGUAACGCGUUUCCCUCCUAAGGAGAAGACUGCGGGUUCGAGUCCCGUAUGGGUCG [G1A U2C G6A C27U C66U A69G A70U]",
    "yeast fitness (ln)": -0.0942
  },
  {
    "Biopolymer sequence": "AGUCCUUUGGCGUAAUGGUAACGCGUCUCCCUCCUAAGGAGAAGACUGCGGGUUCGAGUCCCGUACGGGGCG [G1A U2G G6U A69G A70G]",
    "yeast fitness (ln)": -0.183
  },
  {
    "Biopolymer sequence": "AUUCCGUUGGCGUAAUGGUAACGCGUCUCCCUCCUAAGGAGAAGACUGCGGGUUCGAGUCCCGUACGGGAUG [G1A A69G C71U]",
    "yeast fitness (ln)": -0.0087
  },
  {
    "Biopolymer sequence": "AGUCCUUUGGCGUAAUGGUAACGCGUCUCCCUCCUAAGGAGACGAUUGCGGGUUCGAGUCCCGUAUGGAUUG [G1A U2G G6U A43C C46U C66U A70U C71U]",
    "yeast fitness (ln)": -0.399
  },
  {
    "Biopolymer sequence": "AUUCCAUUGGCGUAAUGGUAACGCGUUUCCCUCCUAAGGAGACGAUUGCGGGUUCGAGUCCCGUAUGGGUCG [G1A G6A C27U A43C C46U C66U A69G A70U]",
    "yeast fitness (ln)": -0.471
  },
  {
    "Biopolymer sequence": "AGUCCUUUGGCGUAAUGGUAACGCGUUUCCCUCCUAAGGAGAAGAUUGCGGGUUCGAGUCCCGUACGGGGUG [G1A U2G G6U C27U C46U A69G A70G C71U]",
    "yeast fitness (ln)": -0.35
  }
]
